Where do the numbers come from? From patent US20240343803A1.

- assayed_system: T1, Fusion protein of extracellular domain of human TIGIT and His-tag (human TIGIT ECD-his) (human)
- T1 chain: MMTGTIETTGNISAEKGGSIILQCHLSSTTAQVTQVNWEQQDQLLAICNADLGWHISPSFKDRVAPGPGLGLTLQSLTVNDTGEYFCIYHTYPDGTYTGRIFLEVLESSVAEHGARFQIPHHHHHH
- method_description: BIAcore
measured_attribute: kon (M⁻¹ s⁻¹)
State just the number; it will be interpreted in M⁻¹ s⁻¹.

These solved cases illustrate the format of a correct answer.
binder="TIGIT-006-H5L2 (antibody, V domains shown, Humanized anti-TIGIT antibody) VH: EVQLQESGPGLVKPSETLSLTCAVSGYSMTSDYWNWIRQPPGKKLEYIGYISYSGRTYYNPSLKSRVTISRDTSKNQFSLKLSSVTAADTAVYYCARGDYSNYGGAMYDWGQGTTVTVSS VL: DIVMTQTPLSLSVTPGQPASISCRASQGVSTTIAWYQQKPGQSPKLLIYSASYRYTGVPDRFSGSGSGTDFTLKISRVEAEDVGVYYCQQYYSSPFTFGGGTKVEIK" observed_result=2.3e+06
binder="TIGIT-006-H1L2 (antibody, V domains shown, Humanized anti-TIGIT antibody) VH: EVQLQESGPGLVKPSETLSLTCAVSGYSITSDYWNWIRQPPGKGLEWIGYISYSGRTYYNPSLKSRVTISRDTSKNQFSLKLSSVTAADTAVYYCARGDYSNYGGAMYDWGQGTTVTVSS VL: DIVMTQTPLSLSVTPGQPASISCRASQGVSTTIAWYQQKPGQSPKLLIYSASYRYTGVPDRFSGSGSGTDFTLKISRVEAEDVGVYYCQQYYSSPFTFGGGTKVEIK" observed_result=117000
binder="TIGIT-006-H2L3 (antibody, V domains shown, Humanized anti-TIGIT antibody) VH: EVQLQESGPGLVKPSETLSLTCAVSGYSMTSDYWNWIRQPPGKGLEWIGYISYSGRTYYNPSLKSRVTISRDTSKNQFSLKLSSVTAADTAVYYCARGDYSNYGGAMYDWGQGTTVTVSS VL: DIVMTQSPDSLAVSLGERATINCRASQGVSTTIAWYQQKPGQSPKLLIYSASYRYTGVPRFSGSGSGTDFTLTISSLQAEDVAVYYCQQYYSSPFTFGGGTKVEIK" observed_result=420000
binder="TIGIT-005-H2L1d (antibody, V domains shown, Humanized anti-TIGIT antibody with NG-site mutation in VL) VH: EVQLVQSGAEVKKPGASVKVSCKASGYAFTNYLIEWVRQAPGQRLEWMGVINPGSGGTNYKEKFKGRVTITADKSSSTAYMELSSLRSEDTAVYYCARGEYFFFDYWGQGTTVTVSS VL: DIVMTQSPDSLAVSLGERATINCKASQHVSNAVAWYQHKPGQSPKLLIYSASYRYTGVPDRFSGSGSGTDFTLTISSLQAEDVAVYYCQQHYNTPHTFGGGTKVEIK" observed_result=4.03e+06

Ask: Fill blank: measured kon of the binder TIGIT-006-H1L3 (antibody, V domains shown, Humanized anti-TIGIT antibody) VH: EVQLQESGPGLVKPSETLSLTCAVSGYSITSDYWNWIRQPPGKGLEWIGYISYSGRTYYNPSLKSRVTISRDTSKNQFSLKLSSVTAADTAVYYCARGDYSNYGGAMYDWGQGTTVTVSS VL: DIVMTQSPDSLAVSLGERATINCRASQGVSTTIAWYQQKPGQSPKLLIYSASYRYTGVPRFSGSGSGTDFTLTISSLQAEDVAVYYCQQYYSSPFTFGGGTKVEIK is ____.
Reply: 144000
